Target: Ubiquitin carboxyl-terminal hydrolase isozyme L5 (Homo sapiens) (UniProt Q9Y5K5)
Sequence (Q9Y5K5 whole entry, looked up): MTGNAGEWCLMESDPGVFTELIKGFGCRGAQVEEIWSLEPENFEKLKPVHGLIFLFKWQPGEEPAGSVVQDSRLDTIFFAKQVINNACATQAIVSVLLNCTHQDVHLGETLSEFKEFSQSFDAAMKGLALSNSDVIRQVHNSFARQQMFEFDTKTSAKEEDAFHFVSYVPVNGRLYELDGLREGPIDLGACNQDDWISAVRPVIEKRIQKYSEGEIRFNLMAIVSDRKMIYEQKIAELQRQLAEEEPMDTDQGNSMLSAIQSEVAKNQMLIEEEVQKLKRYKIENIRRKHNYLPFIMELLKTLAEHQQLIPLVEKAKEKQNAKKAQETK
Assay: inhibitors of human UCH37 deubiquitinase, primary screen, biochemical, Ub-AMC cleavage, fluorescence (AID 588478);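 further: 0% = compound-free wells with enzyme and 100% = wells lacking proteasome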
Settings: purified proteasome/UCH37, Ub-AMC cleavage fluorescence; stronger effect = higher value; concentration not given here
Screen size: about 330,000 compounds; about 1,100 (0.33%) were called active. The entries come from a sample that favours actives as a whole.
Each entry below carries its recorded inhibition.
Measured quantity: inhibition (%)

- COc1cc(C(=O)NC2CCN(Cc3ccccc3)CC2)cc(Cl)c1OC(C)C: 4.45
- C#C[C@]1(O)CCC2C3CCC4=CC(=NOCC(=O)NC(C)C(=O)NC(CCSC)C(=O)O)CC[C@]4(C)C3CC[C@@]21C (stereo partly specified): -1.31
- CCCCCCCCCCCCn1ccc(=N)cc1: 29.5
- CC12CCC3C(CCC4CC(=NO)CCC43C)C1CCC2O (stereo unspecified): 2.36
- COC(=O)[C@H](Cc1ccccc1)NC(=O)Nc1ccc(S(N)(=O)=O)cc1: 2.98
- O=C1NC(=O)N(c2ccccc2)C(=O)/C1=C/c1ccc([N+](=O)[O-])s1: 5.15
